This listing pairs molecules with measured TGI.
Test system: OVCAR-8 ovarian
EXPERIMENT_NOTES: NCI tumour cell line growth inhibition, 48 h

Req: Complete the entry with TGI for Cc1c2ccnc(C(=O)NCCN(C)C)c2cc2c3cc(O)ccc3n(C)c12
Resp: 4.06 µM

Req: Complete the entry with TGI for CCN(CC)C(=O)Cn1c(-c2ccccc2)cc2ccccc21
Resp: > 100 µM

Req: Complete the entry with TGI for C=CCC(N[C@@H](CO)c1ccccc1)c1cn(Cc2ccccc2Cl)c(=O)n(Cc2ccccc2Cl)c1=O (stereo not given in full)
Resp: > 100 µM

Req: Complete the entry with TGI for O=S(=O)([O-])c1ccc(N=Cc2ccccc2[O-])cc1.O=S(=O)([O-])c1ccc(N=Cc2ccccc2[O-])cc1.[O]=[U+2]=[O]
Resp: > 100 µM

Others:
Req: Complete the entry with TGI for C(/C=C/c1ccccc1)=Nc1ccc2c(c1)Cc1ccccc1-2
Resp: > 100 µM

---

Tested on: HOP-18 NSCLC
EXPERIMENT_NOTES: NCI tumour cell line growth inhibition, 48 h
PROPERTY: TGI

Req: Complete the entry with TGI for CCN(CC)CC(C)(C)C(=O)/C=C/c1cccc(/C=C/C(=O)C(C)(C)CN(CC)CC)c1
Resp: 2.84 µM

Req: Complete the entry with TGI for COC1OC(CO)C(O)C(OC(C)=O)C1NC(=O)N(CCCl)N=O (stereo not drawn)
Resp: > 100 µM

Req: Complete the entry with TGI for CC1=C(O)c2cn(C)cc2C(=O)C1=O
Resp: > 100 µM

Req: Complete the entry with TGI for COc1ccc(/C=N/NC(=O)c2sc(=S)n(-c3ccccc3)c2N)cc1
Resp: > 100 µM

Req: Complete the entry with TGI for COC(=O)CCC(NC(=S)N/N=C/c1ccccn1)C(=O)OC (stereo not drawn)
Resp: > 100 µM

Others:
Req: Complete the entry with TGI for c1ccc([CH2][Sn]([CH2]c2ccccc2)([O]c2cccc3cccnc23)[O]c2cccc3cccnc23)cc1
Resp: 2.42 µM

Req: Complete the entry with TGI for CC(=O)Nc1ccc(/C=c2\sc3nnc(CCC(=O)Nc4ccccc4Cl)n3c2=O)cc1
Resp: > 100 µM

Req: Complete the entry with TGI for COc1ccccc1NC(=O)C1=C(C)NC(C)=C(C(=O)Nc2ccccc2OC)C1C1=CC=COC1
Resp: > 100 µM

---

System: ACHN renal
EXPERIMENT_NOTES: NCI tumour cell line growth inhibition, 48 h
PROPERTY: TGI

Req: Complete the entry with TGI for O=S(=O)([O-])c1ccc(N=Cc2ccccc2[O-])cc1.O=S(=O)([O-])c1ccc(N=Cc2ccccc2[O-])cc1.[O]=[U+2]=[O]
Resp: > 100 µM

Req: Complete the entry with TGI for CCN(CC)CCC(=O)c1ccc(Sc2ccc(F)cc2)cc1
Resp: 33.2 µM

Req: Complete the entry with TGI for CC(=O)C1C(=O)C(=O)N(c2ccccc2)C1=O (stereo not given)
Resp: > 100 µM

Others:
Req: Complete the entry with TGI for CC(=O)OC(CN1CCN(c2ccccn2)CC1)Cn1sc2nc(C)cc(C)c2c1=O (stereo not given)
Resp: 30 µM

Req: Complete the entry with TGI for COc1cc2nccc(Oc3ccc(NC(=O)NC4CC4)c(Cl)c3)c2cc1C(N)=O
Resp: > 100 µM
